Attribution: patent US9556165B2

Test system: B. fragilis 6688
Experiment: MIC determination, broth microdilution (CLSI)
Format: cell-based
Conditions: Bacteroides fragilis, 6688, strain 15; broth microdilution; read-out: MIC strain 15 (B. fragilis 6688)
measured-metric: MIC (µg/mL)
Just the number please, in µg/mL, no unit attached.

Return MIC for the following molecule: `C[C@H]1[C@H](NC(=O)/C(=N\OCCOc2ccc(C(=N)N)cc2Br)c2csc(N)n2)C(=O)N1S(=O)(=O)O` 16

Return MIC for the following molecule: `CC1(C)[C@H](NC(=O)/C(=N\OCc2ccc(C(=N)N)cc2)c2csc(N)n2)C(=O)N1OS(=O)(=O)O` 1

Return MIC for the following molecule: `C[C@H]1[C@H](NC(=O)/C(=N\OCCOc2ccc(C(=N)N)cc2)c2nc(N)sc2Cl)C(=O)N1S(=O)(=O)O` 8

Return MIC for the following molecule: `CC1(C)[C@H](NC(=O)/C(=N\O[C@@H](COc2ccc(C(=N)NC3CCNCC3)cc2)C(=O)O)c2csc(N)n2)C(=O)N1OS(=O)(=O)O` 8

Return MIC for the following molecule: `C[C@H]1[C@H](NC(=O)/C(=N\OCCOc2ccc(C(=N)NCCO)cc2)c2csc(N)n2)C(=O)N1S(=O)(=O)O` 1

Return MIC for the following molecule: `CC1(C)[C@H](NC(=O)/C(=N\O[C@@H](COc2ccc(C(=N)NC(CN)CN)cc2)C(=O)O)c2csc(N)n2)C(=O)N1OS(=O)(=O)O` 8
